Every entry's value here was drawn from the supplement of paper PMC7877785.

- Assay Notes: self-splicing fitness, log relative to wild type (ln ratio); higher = more splicing; Tetrahymena group I intron in knt gene, E. coli kanamycin selection, DiMSum; sequences stand for … in CUCUCU…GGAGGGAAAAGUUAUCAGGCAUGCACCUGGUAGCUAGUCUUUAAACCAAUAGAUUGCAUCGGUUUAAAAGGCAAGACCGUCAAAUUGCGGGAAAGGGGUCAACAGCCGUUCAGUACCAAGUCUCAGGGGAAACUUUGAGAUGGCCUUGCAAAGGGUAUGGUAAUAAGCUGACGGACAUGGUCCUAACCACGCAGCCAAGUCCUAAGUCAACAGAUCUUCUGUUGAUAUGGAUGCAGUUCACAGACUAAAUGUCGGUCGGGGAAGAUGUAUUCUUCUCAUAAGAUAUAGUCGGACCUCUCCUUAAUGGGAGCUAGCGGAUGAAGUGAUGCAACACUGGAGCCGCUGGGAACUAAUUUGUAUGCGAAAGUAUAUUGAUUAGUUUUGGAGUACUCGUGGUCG;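 further: selection with 25 µg/mL kanamycin versus none on LB agar overnight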
- Condition Notes: 30 °C
Classes by self-splicing fitness (ln): interval 1: < -3; interval 2: ≥ -3 and < -2; interval 3: ≥ -2

Solved cases (3 shown):
[[record]]
ordered_residues = "CUUAAGCAAUAUUACGUCUG"
group = "interval 3"

[[record]]
ordered_residues = "AUAAAGCAAUAUUACGUAGA"
group = "interval 2"

[[record]]
ordered_residues = "GACCAGCAAUAUUACGUGGA"
group = "interval 3"


Q: Assign a bin to GAGCAGCAAUAUUACGCGUG
A: interval 3

Q: Assign a bin to CACAAGCAAUAUUACGGAGA
A: interval 1

----------
# reported self-splicing fitness (ln); entries follow
- Assay Notes: self-splicing fitness, log relative to wild type (ln ratio); higher = more splicing; Tetrahymena group I intron in knt gene, E. coli kanamycin selection, DiMSum; sequences stand for … in CUCUCU…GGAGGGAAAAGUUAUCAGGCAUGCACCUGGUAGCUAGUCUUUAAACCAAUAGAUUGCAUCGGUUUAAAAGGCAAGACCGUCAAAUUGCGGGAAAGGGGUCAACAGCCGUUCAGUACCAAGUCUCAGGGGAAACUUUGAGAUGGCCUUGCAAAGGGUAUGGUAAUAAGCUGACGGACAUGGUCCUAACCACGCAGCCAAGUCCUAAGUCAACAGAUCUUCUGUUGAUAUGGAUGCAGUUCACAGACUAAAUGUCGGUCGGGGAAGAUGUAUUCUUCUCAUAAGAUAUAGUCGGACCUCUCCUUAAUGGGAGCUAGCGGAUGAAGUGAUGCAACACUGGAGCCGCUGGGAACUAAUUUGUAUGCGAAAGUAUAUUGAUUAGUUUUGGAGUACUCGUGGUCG
- Condition Notes: 30 °C
Write no unit; give the number alone.

Q: GET /values?readout=self-splicing fitness (ln)&item= CCACAGCAAUAUUACGCGAU
A: -3.36

Q: GET /values?readout=self-splicing fitness (ln)&item= UAGAAGCAAUAUUACGAAUG
A: -0.651

----------
- Assay Notes: self-splicing fitness, log relative to wild type (ln ratio); higher = more splicing; Tetrahymena group I intron in knt gene, E. coli kanamycin selection, DiMSum; sequences stand for … in CUCUCU…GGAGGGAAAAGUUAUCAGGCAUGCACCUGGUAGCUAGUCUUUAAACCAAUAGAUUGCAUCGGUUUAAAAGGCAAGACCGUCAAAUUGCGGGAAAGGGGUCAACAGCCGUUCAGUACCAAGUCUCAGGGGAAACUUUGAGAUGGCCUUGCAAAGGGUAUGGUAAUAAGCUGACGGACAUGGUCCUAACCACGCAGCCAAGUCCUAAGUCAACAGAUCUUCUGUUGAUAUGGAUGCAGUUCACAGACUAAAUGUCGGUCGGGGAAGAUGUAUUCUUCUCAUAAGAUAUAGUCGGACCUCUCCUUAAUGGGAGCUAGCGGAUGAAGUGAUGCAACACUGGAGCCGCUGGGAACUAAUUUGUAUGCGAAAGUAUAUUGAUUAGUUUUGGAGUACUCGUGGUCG
- Condition Notes: 30 °C
Returns True if the recorded self-splicing fitness (ln) is greater than or equal to -2, and False otherwise.

Solved cases (5 shown):
[[record]]
ordered_residues = "ACGAAGCAAUAUUACGACUU"
group = "True"

[[record]]
ordered_residues = "UGUAAGCAAUAUUACGCCCU"
group = "True"

[[record]]
ordered_residues = "CCGGAGCAAUAUUACGUAUA"
group = "False"

[[record]]
ordered_residues = "ACAUAGCAAUAUUACGGUUG"
group = "False"

[[record]]
ordered_residues = "CUUGAGCAAUAUUACGAUAC"
group = "False"


Q: Quick check, self-splicing fitness (ln) >= -2? UCCUAGCAAUAUUACGCUGU
A: False

Q: Quick check, self-splicing fitness (ln) >= -2? GAACAGCAAUAUUACGUUCG
A: False

Q: Quick check, self-splicing fitness (ln) >= -2? ACUGAGCAAUAUUACGCAAA
A: False

Q: Quick check, self-splicing fitness (ln) >= -2? UGUGAGCAAUAUUACGAAAG
A: False

----------
- Assay Notes: self-splicing fitness, log relative to wild type (ln ratio); higher = more splicing; Tetrahymena group I intron in knt gene, E. coli kanamycin selection, DiMSum; sequences stand for … in CUCUCU…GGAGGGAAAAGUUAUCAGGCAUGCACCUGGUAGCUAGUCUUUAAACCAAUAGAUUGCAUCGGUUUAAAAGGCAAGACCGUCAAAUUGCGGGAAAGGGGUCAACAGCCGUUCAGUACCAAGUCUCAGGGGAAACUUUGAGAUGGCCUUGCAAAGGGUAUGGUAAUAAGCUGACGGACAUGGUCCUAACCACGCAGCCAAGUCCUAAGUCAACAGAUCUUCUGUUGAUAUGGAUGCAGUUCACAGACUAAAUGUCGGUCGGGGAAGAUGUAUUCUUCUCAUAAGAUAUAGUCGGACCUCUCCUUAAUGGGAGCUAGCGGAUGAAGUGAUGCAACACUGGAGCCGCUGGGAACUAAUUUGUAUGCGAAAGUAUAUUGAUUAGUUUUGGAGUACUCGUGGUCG
- Condition Notes: 37 °C
# reported self-splicing fitness (ln); entries follow
Write no unit; give the number alone.

[[record]]
ordered_residues = "CGAGAGCAAUAUUACGUAGG"
experimental_endpoint = "self-splicing fitness (ln)"
measured_value = -1.39

[[record]]
ordered_residues = "UGGGAGCAAUAUUACGCUCA"
experimental_endpoint = "self-splicing fitness (ln)"
measured_value = -2.72


Switching to the query record.
Q: GET /values?readout=self-splicing fitness (ln)&item= CGGGAGCAAUAUUACGCGAG
A: -2.93

----------
- Assay Notes: self-splicing fitness, log relative to wild type (ln ratio); higher = more splicing; Tetrahymena group I intron in knt gene, E. coli kanamycin selection, DiMSum; sequences stand for … in CUCUCU…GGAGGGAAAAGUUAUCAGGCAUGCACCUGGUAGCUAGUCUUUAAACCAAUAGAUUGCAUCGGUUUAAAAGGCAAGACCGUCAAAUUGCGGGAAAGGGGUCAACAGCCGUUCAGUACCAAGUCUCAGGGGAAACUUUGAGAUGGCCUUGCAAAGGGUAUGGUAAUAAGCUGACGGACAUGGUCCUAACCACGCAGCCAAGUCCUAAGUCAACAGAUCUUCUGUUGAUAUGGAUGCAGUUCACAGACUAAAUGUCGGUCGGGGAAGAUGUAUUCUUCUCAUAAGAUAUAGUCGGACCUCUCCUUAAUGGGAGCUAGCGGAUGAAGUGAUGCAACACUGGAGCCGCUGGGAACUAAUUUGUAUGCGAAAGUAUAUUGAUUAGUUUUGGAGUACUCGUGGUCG
- Condition Notes: 30 °C
Returns true if the recorded self-splicing fitness (ln) is greater than or equal to -2, and false otherwise.

Solved cases (3 shown):
[[record]]
ordered_residues = "UGCUAGCAAUAUUACGUAAG"
group = "false"

[[record]]
ordered_residues = "UCGUAGCAAUAUUACGAUCA"
group = "true"

[[record]]
ordered_residues = "AUCAAGCAAUAUUACGUCCA"
group = "true"


Q: Quick check, self-splicing fitness (ln) >= -2? AAACAGCAAUAUUACGUUCA
A: true

Q: Quick check, self-splicing fitness (ln) >= -2? GUGUAGCAAUAUUACGCCCG
A: false

Q: Quick check, self-splicing fitness (ln) >= -2? GCGGAGCAAUAUUACGAAGC
A: false

Q: Quick check, self-splicing fitness (ln) >= -2? AUGAAGCAAUAUUACGCUAC
A: false

Q: Quick check, self-splicing fitness (ln) >= -2? CGGGAGCAAUAUUACGGUCA
A: false

----------
- Assay Notes: self-splicing fitness, log relative to wild type (ln ratio); higher = more splicing; Tetrahymena group I intron in knt gene, E. coli kanamycin selection, DiMSum; sequences stand for … in CUCUCU…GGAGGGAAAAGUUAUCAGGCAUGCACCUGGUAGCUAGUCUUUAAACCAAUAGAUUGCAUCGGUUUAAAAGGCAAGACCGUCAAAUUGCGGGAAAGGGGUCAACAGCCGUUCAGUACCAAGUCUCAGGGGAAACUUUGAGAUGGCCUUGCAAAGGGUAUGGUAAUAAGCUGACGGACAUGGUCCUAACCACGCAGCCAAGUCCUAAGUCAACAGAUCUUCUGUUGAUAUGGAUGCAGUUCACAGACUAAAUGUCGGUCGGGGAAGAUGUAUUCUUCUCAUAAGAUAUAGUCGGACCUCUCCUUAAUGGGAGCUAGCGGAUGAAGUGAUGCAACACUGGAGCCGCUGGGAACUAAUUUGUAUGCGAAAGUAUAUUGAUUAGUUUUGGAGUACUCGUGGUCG
- Condition Notes: 30 °C
Classes by self-splicing fitness (ln): low: < -3; mid: ≥ -3 and < -1; high: ≥ -1

[[record]]
ordered_residues = "AGAGAGCAAUAUUACGGGCU"
group = "low"

[[record]]
ordered_residues = "UGAAAGCAAUAUUACGAUUG"
group = "high"

[[record]]
ordered_residues = "GCAAAGCAAUAUUACGACAC"
group = "high"

[[record]]
ordered_residues = "AAAAAGCAAUAUUACGCGCC"
group = "high"

[[record]]
ordered_residues = "GUCCAGCAAUAUUACGUUUG"
group = "mid"


Q: Assign a bin to CCUGAGCAAUAUUACGUCGU
A: mid

Q: Assign a bin to GGGAAGCAAUAUUACGCGGA
A: mid

Q: Assign a bin to UAUGAGCAAUAUUACGAUAU
A: low

Q: Assign a bin to UGAAAGCAAUAUUACGAGCG
A: high

Q: Assign a bin to AAAAAGCAAUAUUACGGUUA
A: high

Q: Assign a bin to CUUAAGCAAUAUUACGUCCG
A: high

Q: Assign a bin to AUACAGCAAUAUUACGGCCG
A: mid
